# study.target: Cytochrome P450 3A4 (Homo sapiens) (UniProt P08684)
# Sequence (P08684 whole entry, looked up): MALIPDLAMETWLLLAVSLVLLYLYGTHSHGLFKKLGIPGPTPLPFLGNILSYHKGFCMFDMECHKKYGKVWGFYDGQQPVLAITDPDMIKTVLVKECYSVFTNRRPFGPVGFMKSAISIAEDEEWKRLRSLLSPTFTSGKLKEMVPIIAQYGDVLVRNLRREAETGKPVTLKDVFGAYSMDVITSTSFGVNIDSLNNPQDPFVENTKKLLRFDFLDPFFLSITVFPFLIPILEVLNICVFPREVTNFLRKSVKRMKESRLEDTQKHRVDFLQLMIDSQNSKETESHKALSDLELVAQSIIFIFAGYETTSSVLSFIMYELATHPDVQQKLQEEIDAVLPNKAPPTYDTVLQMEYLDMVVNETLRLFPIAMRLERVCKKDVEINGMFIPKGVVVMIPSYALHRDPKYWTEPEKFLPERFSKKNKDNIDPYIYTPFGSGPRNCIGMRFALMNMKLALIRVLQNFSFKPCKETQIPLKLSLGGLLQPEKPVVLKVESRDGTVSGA
# assay.protocol: Cytochrome panel assay with activity outcomes
# assay.conditions: recombinant CYP, pro-luciferin dealkylation, luminescence, p450-cyp3a4; series mostly up to 57.1 µM
The campaign covered roughly 16,000 compounds. About 5,100 (32%) were called active. About 25% were inconclusive and are not listed. Calls come from the whole dose curve; as a rule, active = well fitted curve in the direction sought with a large enough effect; inconclusive = small, poorly fitted or top-dose-only effect, or effect the other way; inactive = no such curve, though single readings can be large or run the other way. Some of the results follow.
Field 'call' accepts label 1 = active, label 0 = inactive

Enquiry: Tell me the recorded outcome of this test for `C#C[C@H](N)CCC(=O)O` .
Return: label 0

Enquiry: Tell me the recorded outcome of this test for `N/C(=N\c1nc2ccccc2o1)NC(=O)c1ccccc1F` .
Return: label 0

Enquiry: Tell me the recorded outcome of this test for Cc1c(NC(=O)CN2C(=O)C3C4C=CC(C4)C3C2=O)c(=O)n(-c2ccccc2)n1C (stereo not given) .
Return: label 1

Enquiry: Tell me the recorded outcome of this test for `Cc1c(NC(=O)Cn2ccc([N+](=O)[O-])n2)c(=O)n(-c2ccccc2)n1C` .
Return: label 0

Enquiry: Tell me the recorded outcome of this test for `O=C(O)c1cc(=O)c2c(OCC(O)COc3cccc4oc(C(=O)O)cc(=O)c34)cccc2o1` .
Return: label 0

Enquiry: Tell me the recorded outcome of this test for Cc1cccc2c(SCC(=O)NCC3CCCO3)nc(-c3ccc(F)cc3)nc12 (stereo not given) .
Return: label 0

Enquiry: Tell me the recorded outcome of this test for Cc1[nH]nc2nc(SCC(=O)NCC3CCCO3)n(-c3ccc(Br)cc3)c(=N)c12 (stereo not given) .
Return: label 1

Enquiry: Tell me the recorded outcome of this test for `O=C(NCCc1ccc(Cl)cc1)Nc1cccc(Cl)c1` .
Return: label 1

Enquiry: Tell me the recorded outcome of this test for O=C(CCN1C(=O)C2C3C=CC(C3)C2C1=O)Nc1ccc2ncccc2c1 (stereo not given) .
Return: label 1

Enquiry: Tell me the recorded outcome of this test for Cc1ccc(-n2ncc3c(=O)n(CC(=O)NCC4CCCO4)cnc32)cc1 (stereo not given) .
Return: label 0

====

# study.target: Cytochrome P450 3A4 (Homo sapiens) (UniProt P08684)
# assay.protocol: Cytochrome panel assay with activity outcomes
# assay.conditions: recombinant CYP, pro-luciferin dealkylation, luminescence, p450-cyp3a4; series mostly up to 57.1 µM
Hit rate of the full screen: of about 16,000 compounds, about 5,100 (32%) were called active. Roughly 25% stayed inconclusive and do not appear here. The call rests on the fitted dose curve; in most records, active means well fitted curve in the direction sought with a large enough effect; inconclusive means small, poorly fitted or top-dose-only effect, or effect the other way; inactive means no such curve, though single readings can be large or run the other way. Some of the results follow.
Field 'call' accepts 1.0 (active), 0.0 (inactive)

Enquiry: Tell me the recorded outcome of this test for `Cc1ccc(OC(=O)c2cccc(C(=O)Oc3ccc(C)cn3)n2)nc1` .
Return: 0.0

Enquiry: Tell me the recorded outcome of this test for `Cc1ccc(S(=O)(=O)CC#CCOC(=O)c2ccc([N+](=O)[O-])cc2)cc1` .
Return: 1.0

Enquiry: Tell me the recorded outcome of this test for `CCn1c2ccccc2c2cc(NC(=O)C/C(C)=N/NC(=O)c3ccccc3N)ccc21` .
Return: 1.0

Enquiry: Tell me the recorded outcome of this test for COc1ccc(C2C3=C(CC(C)(C)CC3=O)Oc3ncn(CC(C)C)c(=N)c32)cc1 (centres undefined) .
Return: 1.0

====

# study.target: Cytochrome P450 3A4 (Homo sapiens)
# assay.protocol: Cytochrome panel assay with activity outcomes
# assay.conditions: recombinant CYP, pro-luciferin dealkylation, luminescence, p450-cyp3a4; series mostly up to 57.1 µM
Screen size: about 16,000 compounds; about 5,100 (32%) were called active. Inconclusive results (about 25%) are left out. Some of the results follow.
endpoint.name: AC50

COc1ccc(/C=C/C(=O)NCc2cn(C)nc2C)cc1COc1ccc(Br)cc1 | 3.16 µM (active)
CCOc1ccccc1NC(=O)C1=C(C)NC(=O)NC1c1cccc(OC)c1OC (stereo unspecified) | 3.98 µM (active)
CO/N=C(\C(=O)N[C@@H]1C(=O)N2C(C(=O)O)=C(COC(C)=O)CS[C@@H]12)c1csc(N)n1 | inactive
CCn1ncc(/C=C/C(=O)NCc2cn(C)nc2C)c1C | inactive
CN(C)S(=O)(=O)Oc1ccsc1C(=O)Nc1ccc(Cl)cc1 | 15.8 µM (active)

Enquiry: Look up AC50 of `COc1ccc(-c2nc3cnc(N4CCNCC4)nc3n(C3CC3)c2=O)cc1` and report it.
Return: 10 µM (active)
